subjectOfTest: rat metabotropic glutamate receptor 5 (mGluR5) (Rattus norvegicus, UniProt P31424)
Construct: expressed in transfected cells; host or cells: HEK 293
Sequence (P31424 21-1171 isoform P31424-2 limits assumed): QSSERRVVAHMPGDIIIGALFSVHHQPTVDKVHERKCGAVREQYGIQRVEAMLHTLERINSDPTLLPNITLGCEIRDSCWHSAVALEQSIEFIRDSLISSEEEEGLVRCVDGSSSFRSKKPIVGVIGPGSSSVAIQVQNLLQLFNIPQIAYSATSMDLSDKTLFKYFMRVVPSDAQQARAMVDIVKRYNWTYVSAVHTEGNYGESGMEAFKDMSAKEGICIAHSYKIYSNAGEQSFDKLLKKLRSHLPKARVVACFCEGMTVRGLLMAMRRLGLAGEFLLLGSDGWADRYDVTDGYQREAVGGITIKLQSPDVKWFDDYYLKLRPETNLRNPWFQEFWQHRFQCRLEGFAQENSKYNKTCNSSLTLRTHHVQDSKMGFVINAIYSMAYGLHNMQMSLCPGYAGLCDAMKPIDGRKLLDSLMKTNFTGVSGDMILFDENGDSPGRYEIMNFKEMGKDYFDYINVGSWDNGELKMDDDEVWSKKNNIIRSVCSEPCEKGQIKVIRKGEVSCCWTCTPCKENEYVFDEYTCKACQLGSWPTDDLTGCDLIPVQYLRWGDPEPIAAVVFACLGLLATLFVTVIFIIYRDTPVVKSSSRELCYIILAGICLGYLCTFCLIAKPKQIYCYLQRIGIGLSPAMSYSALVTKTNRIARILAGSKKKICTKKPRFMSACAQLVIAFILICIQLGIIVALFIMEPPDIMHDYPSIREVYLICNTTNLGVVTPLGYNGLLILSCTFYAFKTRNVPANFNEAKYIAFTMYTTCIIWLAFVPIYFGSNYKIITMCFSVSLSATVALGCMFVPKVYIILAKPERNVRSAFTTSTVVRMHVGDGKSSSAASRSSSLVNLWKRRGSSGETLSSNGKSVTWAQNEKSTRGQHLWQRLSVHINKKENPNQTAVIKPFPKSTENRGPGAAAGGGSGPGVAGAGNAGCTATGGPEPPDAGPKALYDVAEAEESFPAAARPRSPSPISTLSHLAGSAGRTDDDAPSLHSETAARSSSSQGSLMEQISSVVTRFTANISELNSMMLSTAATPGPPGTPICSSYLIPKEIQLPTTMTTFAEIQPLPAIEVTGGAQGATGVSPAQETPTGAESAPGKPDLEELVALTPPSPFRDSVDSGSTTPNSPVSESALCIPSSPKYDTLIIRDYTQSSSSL
assayComment: Calcium mobilization assay (FLIPR) for negative or positive allosteric activity, HEK 293 cells
Format: cell-based
conditionParameters: HEK293, negative allosteric modulation, inhibition of EC80 glutamate response; read-out: FLIPR maximum inhibition
propertyMeasured: Emax

Need Emax, item Cc1cccc(C(=O)NC23CC4CC(C2)CC(NC(=O)c2ncccc2F)(C4)C3)n1
70 to 99%

Need Emax, item CN(C)C1CCN(c2cccc(C(=O)NC34CC5CC(CC(NC(=O)c6cccc(F)c6)(C5)C3)C4)n2)C1 (stereo not shown)
63 to 99%

Need Emax, item O=C(NC12CC3CC(C1)CC(NC(=O)c1ccncn1)(C3)C2)c1cccc(F)c1
63 to 99%

Need Emax, item Cc1cccc(C(=O)NC23CC4CC(CC(NC(=O)c5ccc6nccn6c5)(C4)C2)C3)n1
63 to 99%

Need Emax, item O=C(NC12CC3CC(C1)CC(NC(=O)c1cccs1)(C3)C2)c1ccccn1
63 to 99%

Need Emax, item COCCN(C)c1cccc(C(=O)NC23CC4CC(CC(NC(=O)c5ccccn5)(C4)C2)C3)n1
63 to 99%

Need Emax, item Cc1cccc(C(=O)NC23CC4CC(C2)CC(NC(=O)c2cc(C)nc(C)n2)(C4)C3)n1
70 to 99%

Need Emax, item Cc1ccc(C(=O)NC23CC4CC(C2)CC(NC(=O)c2cccc(C)n2)(C4)C3)nc1
70 to 99%

Need Emax, item Cc1cccc(C(=O)NC23CC4CC(C2)CC(NC(=O)c2cccc(N5CCC(O)CC5)n2)(C4)C3)n1
63 to 99%

Need Emax, item O=C(NC12CC3CC(C1)CC(NC(=O)c1ccccn1)(C3)C2)c1ccc2nccn2c1
63 to 99%

Need Emax, item CC(=O)NCCNc1cccc(C(=O)NC23CC4CC(CC(NC(=O)c5cccc(F)c5)(C4)C2)C3)n1
63 to 99%

Need Emax, item Cc1cccc(C(=O)NC23CC4CC(CC(NC(=O)c5cc(F)ccn5)(C4)C2)C3)n1
70 to 99%

Need Emax, item CN1CCN(c2cccc(C(=O)NC34CC5CC(CC(NC(=O)c6ccccn6)(C5)C3)C4)n2)CC1
63 to 99%

Need Emax, item O=C(NC12CC3CC(C1)CC(NC(=O)c1ccncn1)(C3)C2)c1ccccn1
63 to 99%

Need Emax, item Cc1cccc(C(=O)NC23CC4CC(C2)CC(NC(=O)c2ccnc(C(F)(F)F)n2)(C4)C3)n1
70 to 99%

Need Emax, item Cc1cccc(C(=O)NC23CC4CC(C2)CC(NC(=O)c2ncccn2)(C4)C3)n1
70 to 99%

Source of measurements: patent US8716284B2
